assay: Relaxivity measurements (r1, r2) in PBS solution; format: physicochemical; settings: 20 MHz (0.47 T), PBS solution, 36° C.
Below: a set of entries, each annotated with reported Relaxivity r1.

COMPOUND	Relaxivity r1
CCCCCCCCCCCC(=O)O[C@@H]1[C@H](OC(=O)CCCCCCCCCCC)[C@@H](CN(CCN(CC(=O)[O-])CC(=O)[O-])CCN(CC(=O)[O-])CC(=O)[O-])O[C@H]1n1ccc(=O)[nH]c1=O.[Gd+3] [LGd4]	27.10 mM⁻¹ s⁻¹
O=C([O-])CN(CCN(CCN(CC(=O)[O-])CC(=O)[O-])C[C@H]1O[C@@H](n2ccc(=O)[nH]c2=O)[C@H](O)[C@@H]1O)CC(=O)[O-].[Gd+3] [LGd1]	5.10 mM⁻¹ s⁻¹
CCCCCCCCCCCCCC(=O)O[C@@H]1[C@H](OC(=O)CCCCCCCCCCCCC)[C@@H](CN(CCN(CC(=O)[O-])CC(=O)[O-])CCN(CC(=O)[O-])CC(=O)[O-])O[C@H]1n1ccc(=O)[nH]c1=O.[Gd+3] [LGd5]	20.10 mM⁻¹ s⁻¹

* * *

assay: Relaxivity measurements (r1, r2) in PBS solution; type: physicochemical; conditions: 20 MHz (0.47 T), PBS solution, 36° C.
Entries annotated with measured Relaxivity r1
OBSERVABLE: Relaxivity r1

COMPOUND	OBSERVED
CNC(=O)CN(CCN(CCN(CC(=O)[O-])CC(=O)NC)CC(=O)[O-])CC(=O)[O-].[Gd+3] [Omniscan ®, Gd-DTPA-BMA, reference compound]	4.41 mM⁻¹ s⁻¹
CNC[C@H](O)[C@@H](O)[C@H](O)[C@H](O)CO.CNC[C@H](O)[C@@H](O)[C@H](O)[C@H](O)CO.O=C([O-])CN(CCN(CC(=O)[O-])CC(=O)O)CCN(CC(=O)[O-])CC(=O)O.[Gd+3] [Magnevist ®, Gd-DTPA, reference compound]	4.70 mM⁻¹ s⁻¹
CCCCCCCC(=O)O[C@@H]1[C@H](OC(=O)CCCCCCC)[C@@H](CN(CCN(CC(=O)[O-])CC(=O)[O-])CCN(CC(=O)[O-])CC(=O)[O-])O[C@H]1n1ccc(=O)[nH]c1=O.[Gd+3]	14.70 mM⁻¹ s⁻¹

* * *

Relaxivity r1 listing for selected compounds.
assay: Relaxivity measurements (r1, r2) in PBS solution; type: physicochemical; conditions: 60 MHz (1.41 T), PBS solution, 36° C.

COMPOUND	UNIT OF MEASUREMENT	Relaxivity r1
CCCCCCCCCCCCCC(=O)O[C@@H]1[C@H](OC(=O)CCCCCCCCCCCCC)[C@@H](CN(CCN(CC(=O)[O-])CC(=O)[O-])CCN(CC(=O)[O-])CC(=O)[O-])O[C@H]1n1ccc(=O)[nH]c1=O.[Gd+3] [LGd5]	mM⁻¹ s⁻¹	17.20
CNC(=O)CN(CCN(CCN(CC(=O)[O-])CC(=O)NC)CC(=O)[O-])CC(=O)[O-].[Gd+3] [Omniscan ®, Gd-DTPA-BMA, reference compound]	mM⁻¹ s⁻¹	3.68
CNC[C@H](O)[C@@H](O)[C@H](O)[C@H](O)CO.CNC[C@H](O)[C@@H](O)[C@H](O)[C@H](O)CO.O=C([O-])CN(CCN(CC(=O)[O-])CC(=O)O)CCN(CC(=O)[O-])CC(=O)O.[Gd+3] [Magnevist ®, Gd-DTPA, reference compound]	mM⁻¹ s⁻¹	3.81
CCCCCCCC(=O)O[C@@H]1[C@H](OC(=O)CCCCCCC)[C@@H](CN(CCN(CC(=O)[O-])CC(=O)[O-])CCN(CC(=O)[O-])CC(=O)[O-])O[C@H]1n1ccc(=O)[nH]c1=O.[Gd+3] [LGd2]	mM⁻¹ s⁻¹	12.40
O=C([O-])CN(CCN(CCN(CC(=O)[O-])CC(=O)[O-])C[C@H]1O[C@@H](n2ccc(=O)[nH]c2=O)[C@H](O)[C@@H]1O)CC(=O)[O-].[Gd+3] [LGd1]	mM⁻¹ s⁻¹	4.17
CCCCCCCCCCCC(=O)O[C@@H]1[C@H](OC(=O)CCCCCCCCCCC)[C@@H](CN(CCN(CC(=O)[O-])CC(=O)[O-])CCN(CC(=O)[O-])CC(=O)[O-])O[C@H]1n1ccc(=O)[nH]c1=O.[Gd+3] [LGd4]	mM⁻¹ s⁻¹	16.50

* * *

assay: Dynamic light scattering (DLS) of micelles; format: physicochemical; conditions: FIGS. 6 to 9

MOL SMILES	DLS PDI of micelles
CCCCCCCCCC(=O)O[C@@H]1[C@H](OC(=O)CCCCCCCCC)[C@@H](CN(CCN(CC(=O)[O-])CC(=O)[O-])CCN(CC(=O)[O-])CC(=O)[O-])O[C@H]1n1ccc(=O)[nH]c1=O.[Gd+3]	1.46
CCCCCCCC(=O)O[C@@H]1[C@H](OC(=O)CCCCCCC)[C@@H](CN(CCN(CC(=O)[O-])CC(=O)[O-])CCN(CC(=O)[O-])CC(=O)[O-])O[C@H]1n1ccc(=O)[nH]c1=O.[Gd+3]	0.986
CCCCCCCCCCCCCC(=O)O[C@@H]1[C@H](OC(=O)CCCCCCCCCCCCC)[C@@H](CN(CCN(CC(=O)[O-])CC(=O)[O-])CCN(CC(=O)[O-])CC(=O)[O-])O[C@H]1n1ccc(=O)[nH]c1=O.[Gd+3]	1.14
CCCCCCCCCCCC(=O)O[C@@H]1[C@H](OC(=O)CCCCCCCCCCC)[C@@H](CN(CCN(CC(=O)[O-])CC(=O)[O-])CCN(CC(=O)[O-])CC(=O)[O-])O[C@H]1n1ccc(=O)[nH]c1=O.[Gd+3]	1.12

* * *

Experiment: Stability against transmetallation by Zn2+ (time evolution of proton relaxation rate)
Assay type: physicochemical
Conditions: 2.5 mM complex with 2.5 mM ZnCl2 in PBS, after 70 h
Method: The stability of the gadolinium complex against various biologically active metal ions is very important in in vivo applications. Among them, only Zn^2+ can displace significant amounts of the Gd^3+ ion as concentration of Zn^2+ in blood is relatively high (55-125 μM/L). […] The time evolution of the ^1H longitudinal relaxivity (R1) of a 2.5 mM gadolinium complex with 2.5 mM ZnCl2 in PBS solution was measured. […]
Listing of recorded Relaxivity retained after transmetallation by entry.
OBSERVABLE: Relaxivity retained after transmetallation (%)

COMPOUND	UNIT OF MEASUREMENT	OBSERVED
CCCCCCCC(=O)O[C@@H]1[C@H](OC(=O)CCCCCCC)[C@@H](CN(CCN(CC(=O)[O-])CC(=O)[O-])CCN(CC(=O)[O-])CC(=O)[O-])O[C@H]1n1ccc(=O)[nH]c1=O.[Gd+3] [LGd2]	%	50
CCCCCCCCCC(=O)O[C@@H]1[C@H](OC(=O)CCCCCCCCC)[C@@H](CN(CCN(CC(=O)[O-])CC(=O)[O-])CCN(CC(=O)[O-])CC(=O)[O-])O[C@H]1n1ccc(=O)[nH]c1=O.[Gd+3] [LGd3]	%	21
CCCCCCCCCCCC(=O)O[C@@H]1[C@H](OC(=O)CCCCCCCCCCC)[C@@H](CN(CCN(CC(=O)[O-])CC(=O)[O-])CCN(CC(=O)[O-])CC(=O)[O-])O[C@H]1n1ccc(=O)[nH]c1=O.[Gd+3] [LGd4]	%	12
O=C([O-])CN(CCN(CCN(CC(=O)[O-])CC(=O)[O-])C[C@H]1O[C@@H](n2ccc(=O)[nH]c2=O)[C@H](O)[C@@H]1O)CC(=O)[O-].[Gd+3] [LGd1]	%	30

* * *

y0 of fit y0+A×exp(−t/C1) of proton relaxation rate during transmetallation for assorted compounds
assay: Stability against transmetallation by Zn2+ (time evolution of proton relaxation rate); assay type: physicochemical; conditions: Zn(II) ions, PBS, 20 MHz (0.47 T), 36° C., steady state in about 70 h
OBSERVABLE: y0 of fit y0+A×exp(−t/C1) of proton relaxation rate during transmetallation

MOL SMILES	OBSERVED
CCCCCCCC(=O)O[C@@H]1[C@H](OC(=O)CCCCCCC)[C@@H](CN(CCN(CC(=O)[O-])CC(=O)[O-])CCN(CC(=O)[O-])CC(=O)[O-])O[C@H]1n1ccc(=O)[nH]c1=O.[Gd+3]	0.50
CCCCCCCCCCCC(=O)O[C@@H]1[C@H](OC(=O)CCCCCCCCCCC)[C@@H](CN(CCN(CC(=O)[O-])CC(=O)[O-])CCN(CC(=O)[O-])CC(=O)[O-])O[C@H]1n1ccc(=O)[nH]c1=O.[Gd+3]	0.12
O=C([O-])CN(CCN(CCN(CC(=O)[O-])CC(=O)[O-])C[C@H]1O[C@@H](n2ccc(=O)[nH]c2=O)[C@H](O)[C@@H]1O)CC(=O)[O-].[Gd+3]	0.30
CCCCCCCCCC(=O)O[C@@H]1[C@H](OC(=O)CCCCCCCCC)[C@@H](CN(CCN(CC(=O)[O-])CC(=O)[O-])CCN(CC(=O)[O-])CC(=O)[O-])O[C@H]1n1ccc(=O)[nH]c1=O.[Gd+3]	0.21
